I'd be grateful if you could share measured inhibition at 10 µM for these entries.
# Target Or System: recombinant CCBL1 (KAT1) (Homo sapiens, UniProt Q16773)
# Construct: made in house; host or cells: Sf9 insect cells (baculovirus)
# Sequence (Q16773 1-422): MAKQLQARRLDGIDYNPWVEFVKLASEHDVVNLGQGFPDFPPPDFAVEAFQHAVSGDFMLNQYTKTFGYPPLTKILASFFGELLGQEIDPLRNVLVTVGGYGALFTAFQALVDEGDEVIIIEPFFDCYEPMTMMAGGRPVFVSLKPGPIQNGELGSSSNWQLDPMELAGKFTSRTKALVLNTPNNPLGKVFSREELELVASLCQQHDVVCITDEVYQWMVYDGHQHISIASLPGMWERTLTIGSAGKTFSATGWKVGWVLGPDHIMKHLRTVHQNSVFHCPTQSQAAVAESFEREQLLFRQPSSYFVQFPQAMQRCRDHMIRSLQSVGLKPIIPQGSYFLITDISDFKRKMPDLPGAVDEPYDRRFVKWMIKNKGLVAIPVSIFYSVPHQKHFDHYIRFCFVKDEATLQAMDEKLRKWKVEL
# Method: Screening of KAT1 (CCBL1) inhibitory activity, L-kynurenine fluorescence assay
# Assay type: biochemical
# Condition Set: 10 μM of the compound, 1 mM L-kynurenine, room temperature 2 hours
Your reply should be a number followed by the unit it is expressed in.

Record O=C(CCc1ccc(O)cc1)c1c(O)cc(O)cc1O . Reported inhibition at 10 µM: 83%

Measured inhibition at 10 µM, COc1cc(O)c(C(C)=O)c(O)c1 [4-O-METHYLPHLORACETOPHENONE, 4-O-methylphloracetophenone, reference compound] : 5.6%

Recorded result, CC(=O)c1c(O)cc(O)cc1O [compound X, 2,4,6-trihydroxyacetophenone] , inhibition at 10 µM: 88.6%

get_value(item= CCC(=O)c1c(O)cc(O)cc1O [FLOPROPIONE, 1-(2,4,6-trihydroxyphenyl) propan-1-one] , readout=inhibition at 10 µM) returns 71.9%
